System: HCT8
Experiment: CellTiter-Glo Luminescent Cell Viability (cell proliferation) assay
Assay type: cell-based, human
Conditions: Homo sapiens, HCT-8; Figure 5B-D, HCT8 (low GLI1 expression); unit inferred, x-axis in μM
measured_endpoint: IC50 (µM)
Answer in µM, number only, no unit symbol.

CS(=O)(=O)c1ccc(C(=O)Nc2ccc(Cl)c(-c3ccccn3)c2)c(Cl)c1: 80.5

# input for lookup
Lookup: Please give measured IC50 of the following entry: `O=c1[nH]cc(F)c(=O)[nH]1`
Found: 110

---

Tested on: HT29
Assay: CellTiter-Glo Luminescent Cell Viability (cell proliferation) assay
Type: cell-based, human
Conditions: Homo sapiens, HT-29, HT29, values in running text
measured_endpoint: IC50 (µM)
# number only, unit µM dropped from output

Lookup: Answer with the recorded IC50 of `O=c1[nH]cc(F)c(=O)[nH]1` only.
Found: 625
